Assign Log10LC50 to each entry below.
System: NCI-H23
ASSAY COMMENT: NCI screening panel, NCI-H23 (Non-Small Cell Lung Cancer)
Type: cell-based, human

Use the examples below as a reference point.
CC(C)C[C@H](NC(=O)[C@H](COC(F)F)NC(=O)CN1CCOCC1)C(=O)N[C@@H](Cc1ccccc1)C(=O)N[C@@H](CC(C)C)C(=O)[C@@]1(C)CO1 >−4.00
CC(C)C[C@H](NC(=O)[C@H](COC(F)F)NC(=O)[C@H](COC(F)F)NC(=O)[C@H](CCc1ccccc1)NC(=O)CN1CCOCC1)C(=O)[C@@]1(C)CO1 >−4.00

Now turn to the next compound.
// lookup Log10LC50 for CC(C)C[C@H](NC(=O)[C@H](COC(F)F)NC(=O)[C@H](COC(F)F)NC(=O)[C@H](COC(F)F)NC(=O)CN1CCOCC1)C(=O)[C@@]1(C)CO1
>−4.00

----------
Assign Log10TGI50 to each entry below.
Tested on: CCRF-CEM
ASSAY COMMENT: NCI screening panel, CCRF-CEM (Leukemia)
Type: cell-based, human

Use the examples below as a reference point.
COMPOUND	Log10TGI50
CC(C)C[C@H](NC(=O)[C@H](COC(F)F)NC(=O)CN1CCOCC1)C(=O)N[C@@H](COC(F)F)C(=O)N[C@@H](Cc1ccccc1)C(=O)[C@@]1(C)CO1 [Example 4]	>−4.00
CC(C)C[C@H](NC(=O)[C@H](COC(F)F)NC(=O)[C@H](COC(F)F)NC(=O)[C@H](CCc1ccccc1)NC(=O)CN1CCOCC1)C(=O)[C@@]1(C)CO1 [Example 7]	>−4.00
CC(C)C[C@H](NC(=O)[C@H](COC(F)F)NC(=O)CN1CCOCC1)C(=O)N[C@@H](Cc1ccccc1)C(=O)N[C@@H](Cc1ccccc1)C(=O)[C@@]1(C)CO1 [Example 3]	−4.88
CC(C)C[C@H](NC(=O)[C@H](COC(F)F)NC(=O)[C@H](COC(F)F)NC(=O)[C@H](COC(F)F)NC(=O)CN1CCOCC1)C(=O)[C@@]1(C)CO1 [Example 17]	>−4.00

// lookup Log10TGI50 for CC(C)C[C@H](NC(=O)[C@H](Cc1ccccc1)NC(=O)[C@H](COC(F)F)NC(=O)[C@H](COC(F)F)NC(=O)CN1CCOCC1)C(=O)[C@@]1(C)CO1 [Example 11]
−4.57

----------
System: NCI-H226
ASSAY COMMENT: NCI screening panel, NCI-H226 (Non-Small Cell Lung Cancer)
Assay type: cell-based, human
METRIC NAME: Log10TGI50
Numbers only.

CC(C)C[C@H](NC(=O)[C@H](COC(F)F)NC(=O)CN1CCOCC1)C(=O)N[C@@H](COC(F)F)C(=O)N[C@@H](Cc1ccccc1)C(=O)[C@@]1(C)CO1 −7.30

I would be grateful if you could provide Log10TGI50 for each of the following entries.
1. CC(C)C[C@H](NC(=O)[C@H](COC(F)F)NC(=O)CN1CCOCC1)C(=O)N[C@@H](Cc1ccccc1)C(=O)N[C@@H](CC(C)C)C(=O)[C@@]1(C)CO1
2. CC(C)C[C@H](NC(=O)[C@H](COC(F)F)NC(=O)[C@H](COC(F)F)NC(=O)[C@H](CCc1ccccc1)NC(=O)CN1CCOCC1)C(=O)[C@@]1(C)CO1
3. CC(C)C[C@H](NC(=O)[C@H](COC(F)F)NC(=O)CN1CCOCC1)C(=O)N[C@@H](Cc1ccccc1)C(=O)N[C@@H](Cc1ccccc1)C(=O)[C@@]1(C)CO1

−7.48
−7.41
−7.92

----------
System: MALME-3M
ASSAY COMMENT: NCI screening panel, MALME-3M (Melanoma)
Format: cell-based, human
METRIC NAME: Log10GI50
Give bare numbers.

Use the examples below as a reference point.
CC(C)C[C@H](NC(=O)[C@H](Cc1ccccc1)NC(=O)[C@H](COC(F)F)NC(=O)[C@H](COC(F)F)NC(=O)CN1CCOCC1)C(=O)[C@@]1(C)CO1 −7.14
CC(C)C[C@H](NC(=O)[C@H](COC(F)F)NC(=O)CN1CCOCC1)C(=O)N[C@@H](Cc1ccccc1)C(=O)N[C@@H](Cc1ccccc1)C(=O)[C@@]1(C)CO1 −7.65

Report Log10GI50 for CC(C)C[C@H](NC(=O)[C@H](COC(F)F)NC(=O)CN1CCOCC1)C(=O)N[C@@H](COC(F)F)C(=O)N[C@@H](CC(C)C)C(=O)[C@@]1(C)CO1 tested on MALME-3M.
−7.39

----------
Test system: SNB-19
ASSAY COMMENT: NCI screening panel, SNB-19 (CNS Cancer)
Format: cell-based, human
Method: Representative compounds of Formula I were screened using the National Cancer Institute (NCI) screening panel, which consists of a panel of human tumor cell lines, representing leukemia, melanoma, and cancers of the lung, colon, ovary, breast, prostate and renal system. […] Three dose response parameters are calculated for each experimental agent. […] The drug concentration resulting in total growth inhibition (TGI) is calculated from Ti=Tz. […]
METRIC NAME: Log10GI50
Numbers only.

Use the examples below as a reference point.
CC(C)C[C@H](NC(=O)[C@H](COC(F)F)NC(=O)CN1CCOCC1)C(=O)N[C@@H](COC(F)F)C(=O)N[C@@H](Cc1ccccc1)C(=O)[C@@]1(C)CO1 −7.14
CC(C)C[C@H](NC(=O)[C@H](COC(F)F)NC(=O)CN1CCOCC1)C(=O)N[C@@H](COC(F)F)C(=O)N[C@@H](CC(C)C)C(=O)[C@@]1(C)CO1 −7.22

Now turn to the next compound.
Report Log10GI50 for CC(C)C[C@H](NC(=O)[C@H](COC(F)F)NC(=O)CN1CCOCC1)C(=O)N[C@@H](Cc1ccccc1)C(=O)N[C@@H](CC(C)C)C(=O)[C@@]1(C)CO1 tested on SNB-19.
−7.18

----------
System: HCC-2998
ASSAY COMMENT: NCI screening panel, HCC-2998 (Colon Cancer)
Type: cell-based, human
Assign Log10LC50 to each entry below.
One number for each entry.

Use the examples below as a reference point.
CC(C)C[C@H](NC(=O)[C@H](COC(F)F)NC(=O)[C@H](COC(F)F)NC(=O)[C@H](COC(F)F)NC(=O)CN1CCOCC1)C(=O)[C@@]1(C)CO1 −6.19
CC(C)C[C@H](NC(=O)[C@H](COC(F)F)NC(=O)CN1CCOCC1)C(=O)N[C@@H](COC(F)F)C(=O)N[C@@H](Cc1ccccc1)C(=O)[C@@]1(C)CO1 −6.30

Report Log10LC50 for CC(C)C[C@H](NC(=O)[C@H](COC(F)F)NC(=O)CN1CCOCC1)C(=O)N[C@@H](Cc1ccccc1)C(=O)N[C@@H](CC(C)C)C(=O)[C@@]1(C)CO1 tested on HCC-2998.
−7.15

----------
Assign Log10GI50 to each entry below.
System: NCI-H522
ASSAY COMMENT: NCI screening panel, NCI-H522 (Non-Small Cell Lung Cancer)
Format: cell-based, human

Use the examples below as a reference point.
CC(C)C[C@H](NC(=O)[C@H](Cc1ccccc1)NC(=O)[C@H](COC(F)F)NC(=O)[C@H](COC(F)F)NC(=O)CN1CCOCC1)C(=O)[C@@]1(C)CO1 −7.72
CC(C)C[C@H](NC(=O)[C@H](COC(F)F)NC(=O)CN1CCOCC1)C(=O)N[C@@H](COC(F)F)C(=O)N[C@@H](Cc1ccccc1)C(=O)[C@@]1(C)CO1 −7.75
CC(C)C[C@H](NC(=O)[C@H](COC(F)F)NC(=O)[C@H](COC(F)F)NC(=O)[C@H](CCc1ccccc1)NC(=O)CN1CCOCC1)C(=O)[C@@]1(C)CO1 −7.88
CC(C)C[C@H](NC(=O)[C@H](COC(F)F)NC(=O)CN1CCOCC1)C(=O)N[C@@H](Cc1ccccc1)C(=O)N[C@@H](CC(C)C)C(=O)[C@@]1(C)CO1 <−8.00
CC(C)C[C@H](NC(=O)[C@H](COC(F)F)NC(=O)CN1CCOCC1)C(=O)N[C@@H](COC(F)F)C(=O)N[C@@H](CC(C)C)C(=O)[C@@]1(C)CO1 −7.96

I would be grateful if you could provide Log10GI50 for each of the following entries.
1. CC(C)C[C@H](NC(=O)[C@H](COC(F)F)NC(=O)CN1CCOCC1)C(=O)N[C@@H](Cc1ccccc1)C(=O)N[C@@H](Cc1ccccc1)C(=O)[C@@]1(C)CO1
2. CC(C)C[C@H](NC(=O)[C@H](COC(F)F)NC(=O)[C@H](COC(F)F)NC(=O)[C@H](COC(F)F)NC(=O)CN1CCOCC1)C(=O)[C@@]1(C)CO1

1. <−8.00
2. −7.40
